# SYSTEM_TESTED: cynomolgus monkey EL (cynomolgus monkey)
# TEST_SUMMARY: cell-based or functional assay
VALUE_KIND: Neutralizing activity IC50 (nM)
Quick reminder: number only, in nM, skip the unit.

[[record]]
binder = "53A11 (antibody, mouse IgG2a, V domains shown, mouse IgG2a from hybridoma; also called 53A11 (mouse mAb)) VH: EVQLQQSGPELLKPGASVKISCKASGYTFTDYTMHWVKQSHGKSLEWIGGINPYYGGTTYNEKFKDKATLTVDKSSSTAYMELRSLTSEDSAVYYCAKGDYYGGSYNYWGQGTTLTVSS VL: DIVLTQSLATLSVTPGDSVSLSCRASQDISNSLHWYQQKSHESPRLLIKYASQSISGIPSRFSGSGSGTDFTLSINSVETEDFGMYFCQQSNSWPYTFGGGTKLEIK"
number = 1.9

[[record]]
binder = "7D4 (antibody, mouse IgG1, V domains shown, mouse IgG1 from hybridoma) VH: QIQLVQSGPELKKPGETVKISCKASGYTFTNYGMNWVKQAPGKDLKWMGWINTYSGVPTYADDFKGRFAFSLETSASTAYLQINNLKNEDTATYFCARFSYYGRHYFDYWGQGTTLTVSS VL: DIVLTQSPASLAVSLGQRATISCKASQSVDYDGDSYMNWYQQKPGQPPQLLIYAASNLGSGIPARFSGSGSGTDFTLNIHPVEEEDAATYYCHQSTDDPPWTFGGGTKLEIK"
number = 2.1

[[record]]
binder = "14E1 (antibody, mouse IgG1, V domains shown, mouse IgG1 from hybridoma) VH: QVQLQQSGAELVKPGASVRLSCKASGYTFTKYTIHWVKQRSGQGLEWIGWFYPGSDSIKYNEKFKDKATLTADKSSRTVYMELSRLTSEDSAVYFCARHEEYTNSLAYWGQGTLVTVSA VL: DIQMTQTTSSLSASLGDRVTISCRASQDISNYLNWYQQQPDGTVKLLIYYTSRLHSGVPSRFSGSGSGTDYSLTISNLEQEDIATYFCQQGYTLPWTFGGGTNLEIK"
number = 2.4

[[record]]
binder = "13B3 (antibody, mouse IgG2a, V domains shown, mouse IgG2a from hybridoma; also called 13B3 (mouse mAb)) VH: EVQLQQSGPELLKPGASVKISCKASGYTFTEYTMHWVKQSHGKSLEWIGSINPYYGGTSYNEKFKDKATLTVDKSSNTAYMEFRSLTSEDCAVYYCARYGNYVGYFDYWGQGTTLTVSS VL: ENVLTQSPAIMSASLGEKVTMSCRASSSVHYMYWYQQKSDASPKLWIYYTSNLAPGVPDRFSGSGSGNSYSLTISSMEGEDAATYYCQQFTSSPYTFGGGTKLEIK"
number = 1.7

[[record]]
binder = "19E7 (antibody, mouse IgG2a, V domains shown, mouse IgG2a from hybridoma; also called 19E1(19E7)) VH: QVQLQQPGSVLVRPGASVKLSCKASGYTFTTYWMHWVKQRPGQGLEWIGEIHPYSGNNNNNEKFKGKATLTVDTSSSTAYVDLSRLTSEDSAVYYCARYDSNYVFAYWGQGTLVTVSA VL: QIVLTQSPAIMSASPGEGVTITCSASSSVSYMHWFQQKPGTSPKLWIYSTSNLASGVPARFSGSGSGTSYSLTISRMEAEDAATYYCQQRDSYLTFGSGTKLEVK"
number = 1.7

[[record]]
binder = "23H8 (antibody, mouse IgG2a, V domains shown, mouse IgG2a from hybridoma; also called 23H8 (mouse mAb)) VH: EVQLQQSGPELLKPGASVKISCKASGYTFTDNTIHWVKQSHGKSLEWIGHINPYYGGTNNNEKFKDKATLTVDKSSSTAYMELRSLTSEDSAIYYCARKGIYYSSPFDYWGQGTTLTVSS VL: DIQMTQTTSSLSASLGDRVTISCRASQDINNYLNWYQQKPDGTVKLLISYTSKLHSGVPSRFSGSGSGTDYSLTISNLEREDFATYFCQQGNTLPFTFGSGTNLEIK"
number = 2.7


Challenge: Value lookup for Neutralizing activity IC50; key = 55A1 (antibody, mouse IgG2a, V domains shown, mouse IgG2a from hybridoma; also called 55A1 (mouse mAb)) VH: QIHLVQSGPELKKPGETVKISCKASGYTFTNYGMNWVKQAPGKGLKWMGWINTYSGVPTYAGDFKGRFAFSLETSASTAYLQINNLKNEDTATYFCARRGYYGRRYFDVWGTGTTVTVSS VL: DIVLTQSPASLAVSLGQRATISCKASQSVDYDVDSYMHWYQQKPGQPPKLLIYAASNLASGIPARFSGGGSGTDFTLNIHPVEEEDVATYYCQQTIEDPPTFGGGTKLEIK
Response given: 1.5
